Values of IC50 reported for UniProt Q9FBC5 appear below.
Sequence (Q9FBC5 whole entry): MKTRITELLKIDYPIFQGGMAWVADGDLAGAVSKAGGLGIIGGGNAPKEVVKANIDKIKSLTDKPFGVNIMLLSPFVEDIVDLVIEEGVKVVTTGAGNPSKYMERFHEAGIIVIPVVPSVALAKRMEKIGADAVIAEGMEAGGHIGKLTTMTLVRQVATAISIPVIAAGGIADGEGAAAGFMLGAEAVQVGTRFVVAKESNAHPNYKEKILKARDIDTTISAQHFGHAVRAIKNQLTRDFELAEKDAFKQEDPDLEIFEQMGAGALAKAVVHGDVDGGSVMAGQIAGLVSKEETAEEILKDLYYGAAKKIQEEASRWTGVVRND
# output: bare number, implied unit nM

Guide cases for IC50, answers given:
• Cc1c(Cc2c(Cl)cccc2Cl)c(=O)ccn1CCc1ccc(-c2c[nH]c(CNC(=O)Nc3ncc(Br)s3)n2)cc1 = 29
• Cc1c(Cc2c(Cl)cccc2Cl)c(=O)ccn1Cc1ccc(-c2c[nH]c(CNC(=O)Nc3ncc(Br)s3)n2)cc1 = 11000
• O=C(NCc1ncc(-c2ccc(Br)cc2)[nH]1)Nc1ncc(Sc2ccccn2)s1 = 2.4

The recorded IC50 with UniProt Q9FBC5 for Cc1c(Cc2c(Cl)cccc2Cl)c(=O)ccn1C/C=C/c1ccc(-c2c[nH]c(CNC(=O)Nc3ncc(Br)s3)n2)cc1 was 9000

The recorded IC50 with UniProt Q9FBC5 for O=C([O-])COc1ccc(-c2cnc(CNC(=O)Nc3ncc(Sc4ccccn4)s3)[nH]2)cc1.[Na+] was 34

The recorded IC50 with UniProt Q9FBC5 for O=C(NCc1ncc(-c2ccccc2)[nH]1)Nc1ncc(Sc2ccccn2)s1 was 42

The recorded IC50 with UniProt Q9FBC5 for Cc1c(Cc2c(Cl)cccc2Cl)c(=O)ccn1CCc1ccc(-c2c[nH]c(CNC(=O)Nc3nc4ccc(S(C)(=O)=O)cc4s3)n2)cc1 was 4.5

The recorded IC50 with UniProt Q9FBC5 for O=C(NCc1ncc(-c2cccc(Br)c2)[nH]1)Nc1ncc(Sc2ccccn2)s1 was 5.3
